Target: T1, HLA-A*02:01 (human)
T1 construct: monomers captured on streptavidin plates; also called MHC class I
Test: UV peptide exchange ELISA
METRIC: peptide exchange yield

Completed entries (count: 4):
>>> observed_measurement("RVLEVGALQAV")
"20 to 50%"
>>> observed_measurement("VLSETLYEL")
"20 to 50%"
>>> observed_measurement("AMLEKNYKL")
"≥ 75%"
>>> observed_measurement("ALYETELADA")
"20 to 50%"

Data request: Tell me the measured peptide exchange yield of KVSNSGITRV , please.
Data returned: 20 to 50%

Data request: Tell me the measured peptide exchange yield of VMFEDGVLMRL , please.
Data returned: 50 to 75%

Data request: Tell me the measured peptide exchange yield of STMEQNFLL , please.
Data returned: ≥ 75%

Data request: Tell me the measured peptide exchange yield of TLTKVLVAL , please.
Data returned: 50 to 75%
